// each record: one item and its pKi for UniProt:P00742
Sequence (P00742 41-179): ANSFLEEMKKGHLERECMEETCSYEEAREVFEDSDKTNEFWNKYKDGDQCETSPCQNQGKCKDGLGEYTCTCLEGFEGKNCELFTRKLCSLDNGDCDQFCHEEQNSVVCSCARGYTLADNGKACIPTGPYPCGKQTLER
Sequence (P00742 235-488): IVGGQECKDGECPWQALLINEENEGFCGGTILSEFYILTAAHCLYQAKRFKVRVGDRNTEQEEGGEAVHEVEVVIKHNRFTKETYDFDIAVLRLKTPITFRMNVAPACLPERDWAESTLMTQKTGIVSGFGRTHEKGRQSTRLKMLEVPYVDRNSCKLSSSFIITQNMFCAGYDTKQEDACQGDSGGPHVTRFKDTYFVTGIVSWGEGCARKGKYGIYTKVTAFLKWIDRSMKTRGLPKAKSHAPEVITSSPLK
pKi: −log10 of the molar value.

Take a look at these entries with their results.
Cc1ccc2cc1NC(=O)CNC(=O)CCCNC(=O)Cc1cccc(c1)NC(=O)[C@@H](NC(=O)[C@H]1CC[C@H](CN)CC1)Cc1ccc-2cc1 :: < 5.05
Cc1ccc2cc1NC(=O)CNC(=O)CCNC(=O)c1ccc3cc(ccc3c1)NC(=O)[C@@H](NC(=O)[C@H]1CC[C@H](CN)CC1)Cc1ccc-2cc1 :: < 4.40

API: the following record is the query input.
Request: Which pKi is reported with UniProt:P00742 for this entry: Cc1ccc2cc1NC(=O)C(CCc1ccccc1)NC(=O)CCCNC(=O)Cc1ccc(cc1)NC(=O)C(NC(=O)C1CCC(CN)CC1)Cc1ccc-2cc1 (stereo not drawn) ?
Response: < 4.10

###

# TARGET_OR_SYSTEM: factor XIa (fXIa) (Homo sapiens)
# Sequence (P03951 19-387): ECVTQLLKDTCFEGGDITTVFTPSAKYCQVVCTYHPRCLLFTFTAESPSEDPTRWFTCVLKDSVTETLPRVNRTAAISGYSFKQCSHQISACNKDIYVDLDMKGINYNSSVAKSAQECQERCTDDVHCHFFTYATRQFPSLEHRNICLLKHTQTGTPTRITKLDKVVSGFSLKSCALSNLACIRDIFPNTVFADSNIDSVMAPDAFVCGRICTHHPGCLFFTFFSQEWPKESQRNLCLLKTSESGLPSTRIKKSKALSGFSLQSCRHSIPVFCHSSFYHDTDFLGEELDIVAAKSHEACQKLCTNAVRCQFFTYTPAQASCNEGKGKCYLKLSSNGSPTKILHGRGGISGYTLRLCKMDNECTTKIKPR
# Sequence (P03951 388-625): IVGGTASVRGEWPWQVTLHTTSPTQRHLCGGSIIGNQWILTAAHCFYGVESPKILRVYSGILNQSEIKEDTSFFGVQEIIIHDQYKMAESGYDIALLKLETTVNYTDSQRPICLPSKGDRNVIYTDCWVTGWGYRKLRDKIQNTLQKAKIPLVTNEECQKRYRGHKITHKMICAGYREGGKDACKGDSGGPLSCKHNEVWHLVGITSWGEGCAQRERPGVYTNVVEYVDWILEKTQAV
# PROCEDURE_TEXT: Selectivity: inhibition of factor XIa
# Type: biochemical
# CONDITIONS_USED: in brackets
# Procedure: For these three proteases a selectivity index (SI=K i(protease)/K i(plasmin)) was calculated, which is provided in brackets after the inhibition constants (Table 3). The measurements with the related trypsin‐like serine proteases trypsin, plasma kallikrein, factor XIa, thrombin, activated protein Ca and factor Xa used in selectivity studies were performed as described previously.[11, 12]
QUANTITY_MEASURED: fXIa selectivity index K i(protease)/Ki(plasmin)
Form field (numeric): enter value without unit.

Examples with answers:
NC[C@H]1CC[C@H](C(=O)N[C@H]2Cc3ccc(cc3)-c3ccc(C(=O)Nc4ccccc4)c(c3)NC(=O)CNC(=O)CCCNC(=O)Cc3ccc(cc3)NC2=O)CC1 :: 4
Cc1ccc2cc1NC(=O)C(Cc1ccccc1)NC(=O)CCCNC(=O)Cc1ccc(cc1)NC(=O)C(NC(=O)C1CCC(CN)CC1)Cc1ccc-2cc1 (stereo not shown) :: 23

Request: Please tell me: fXIa selectivity index K i(protease)/Ki(plasmin) of `Cc1ccc2cc1NC(=O)CNC(=O)CCNC(=O)c1ccc3cc(ccc3c1)NC(=O)[C@@H](NC(=O)[C@H]1CC[C@H](CN)CC1)Cc1ccc-2cc1` , system factor XIa (fXIa) (Homo sapiens)?
Response: 137

###

# TARGET_OR_SYSTEM: human plasmin (Homo sapiens)
# Construct: purchased Calbiochem
# Sequence (P00747 581-810): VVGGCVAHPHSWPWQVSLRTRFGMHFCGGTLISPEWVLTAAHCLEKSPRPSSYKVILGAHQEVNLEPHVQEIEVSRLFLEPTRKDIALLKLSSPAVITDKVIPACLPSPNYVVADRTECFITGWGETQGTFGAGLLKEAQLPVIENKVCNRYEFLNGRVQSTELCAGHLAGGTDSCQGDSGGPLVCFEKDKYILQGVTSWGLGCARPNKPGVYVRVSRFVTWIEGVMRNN
# Sequence (P00747 97-580): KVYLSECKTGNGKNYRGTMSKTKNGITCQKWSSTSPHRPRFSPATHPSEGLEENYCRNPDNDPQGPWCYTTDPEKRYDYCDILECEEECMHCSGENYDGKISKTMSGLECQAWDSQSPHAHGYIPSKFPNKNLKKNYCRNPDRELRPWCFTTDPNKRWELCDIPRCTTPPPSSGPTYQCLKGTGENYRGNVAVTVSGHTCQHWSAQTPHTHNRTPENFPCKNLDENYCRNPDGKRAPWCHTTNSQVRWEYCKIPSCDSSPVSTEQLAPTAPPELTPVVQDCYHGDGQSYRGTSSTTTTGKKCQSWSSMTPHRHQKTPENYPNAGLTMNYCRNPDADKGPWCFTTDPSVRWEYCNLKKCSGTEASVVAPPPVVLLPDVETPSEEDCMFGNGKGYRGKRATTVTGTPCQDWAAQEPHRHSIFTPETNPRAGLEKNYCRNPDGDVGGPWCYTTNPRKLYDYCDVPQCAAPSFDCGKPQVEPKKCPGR
# PROCEDURE_TEXT: Inhibition of human plasmin, fluorogenic substrate Mes-DArg-Phe-Arg-AMC
# Format: biochemical
# CONDITIONS_USED: K i (μM), inhibition of plasmin, series one, 4-aminophenylalanine in P1'; steady-state velocities, equation 1
molecules and their reported Ki
Write it as a number; the unit µM goes unstated.

Request: Fill in: Ki of `NC[C@H]1CC[C@H](C(=O)N[C@H]2Cc3ccc(cc3)NC(=O)CNC(=O)CCNC(=O)Cc3ccc(cc3)NC2=O)CC1` is ___
Response: 2.82

Request: Can you share its Ki? I mean this molecule: `NC[C@H]1CC[C@H](C(=O)N[C@H]2Cc3ccc(cc3)NC(=O)CCCCNC(=O)Cc3ccc(cc3)NC2=O)CC1`
Response: 2.45

###

# Ki annotations
# TARGET_OR_SYSTEM: activated protein C (aPC) (Homo sapiens, UniProt P04070)
# Sequence (P04070 43-197): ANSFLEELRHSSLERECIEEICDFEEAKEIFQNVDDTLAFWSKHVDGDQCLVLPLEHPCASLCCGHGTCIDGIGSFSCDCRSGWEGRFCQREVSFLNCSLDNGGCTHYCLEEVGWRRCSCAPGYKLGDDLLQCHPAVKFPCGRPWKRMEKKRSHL
# Sequence (P04070 212-461): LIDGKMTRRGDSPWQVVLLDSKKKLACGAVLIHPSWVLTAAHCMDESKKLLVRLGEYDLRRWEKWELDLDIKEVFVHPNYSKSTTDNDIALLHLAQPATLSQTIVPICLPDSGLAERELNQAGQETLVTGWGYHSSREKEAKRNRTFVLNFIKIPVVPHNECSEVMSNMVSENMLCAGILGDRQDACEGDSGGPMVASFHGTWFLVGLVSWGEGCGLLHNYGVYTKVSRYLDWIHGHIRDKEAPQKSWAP
# PROCEDURE_TEXT: Selectivity: inhibition of activated protein C
# CONDITIONS_USED: deduced from pre-assays with only three inhibitor concentrations; read-out: aPC K i

Example results:
Cc1ccc2cc1NC(=O)CNC(=O)CCNC(=O)c1ccc3cc(ccc3c1)NC(=O)[C@@H](NC(=O)[C@H]1CC[C@H](CN)CC1)Cc1ccc-2cc1 [inhibitor 45] :: > 4 µM
CC(C)NC(=O)c1ccc2cc1NC(=O)CNC(=O)CCCNC(=O)Cc1ccc(cc1)NC(=O)C(NC(=O)C1CCC(CN)CC1)Cc1ccc-2cc1 (stereo not shown) [inhibitor 33] :: > 35 µM
Cc1ccc2cc1NC(=O)C(Cc1ccccc1)NC(=O)CCCNC(=O)Cc1ccc(cc1)NC(=O)C(NC(=O)C1CCC(CN)CC1)Cc1ccc-2cc1 (stereo not shown) [inhibitor 30] :: > 5 µM

Request: May I ask what Ki has been recorded for Cc1ccc2cc1NC(=O)C(CCc1ccccc1)NC(=O)CCCNC(=O)Cc1ccc(cc1)NC(=O)C(NC(=O)C1CCC(CN)CC1)Cc1ccc-2cc1 (stereo not shown) [inhibitor 31] ?
Response: > 10 µM

Request: Could you share which Ki value was measured for Cc1ccc2cc1NC(=O)CNC(=O)CCCNC(=O)Cc1ccc(cc1)NC(=O)[C@@H](NC(=O)[C@H]1CC[C@H](CN)CC1)Cc1ccc-2cc1 [inhibitor 28] ?
Response: > 35 µM

Request: Data request, read-out Ki, for Cc1ccc2cc1NC(=O)CNC(=O)CCCNC(=O)Cc1cccc(c1)NC(=O)[C@@H](NC(=O)[C@H]1CC[C@H](CN)CC1)Cc1ccc-2cc1 [inhibitor 40]
Response: > 40 µM

Request: Can you look up the measured Ki of NC[C@H]1CC[C@H](C(=O)N[C@H]2Cc3ccc(cc3)-c3ccc(C(=O)Nc4ccccc4)c(c3)NC(=O)CNC(=O)CCCNC(=O)Cc3ccc(cc3)NC2=O)CC1 [inhibitor 32] for me?
Response: > 20 µM
